test system: HCC-2998 colon; assay: NCI tumour cell line growth inhibition, 48 h
What GI50 was measured for each of the following?

Qu. // Input: O=C(N[C@@H](C[Se][Se]C[C@H](NC(=O)c1ccc(Br)cc1F)C(=O)O)C(=O)O)c1ccc(Br)cc1F . Output its GI50 only.
Ans. > 100 µM

Qu. Retrieve GI50 measured for c1ccc2[nH]c(-c3ccc(Nc4nc(N5CCCCC5)nc(N5CCOCC5)n4)cc3)nc2c1 and print it.
Ans. 3.74 µM

Qu. Output GI50 of CCOC(=O)/C(C#N)=C\C=C(/Cl)c1ccc(Cl)cc1
Ans. 16.1 µM

Qu. // Input: CCCCCCCCCCCCCCCC[N+]1(C)CCOCC1 . Output its GI50 only.
Ans. 1.21 µM

---

test system: SNB-78 CNS; test: NCI tumour cell line growth inhibition, 48 h
So I've got a bunch of compounds here, and I need their TGI values.
Express it in µM; write the number only.

Qu. Name the recorded TGI of the compound listed here: O=C(/C=C/c1ccccc1)c1ccc(NCc2nc3ccccc3[nH]2)cc1
Ans. 20.7

Qu. Output TGI of COc1ccc(C(=O)NCCN(C)C)c2nc3ccccc3nc12
Ans. 38.4

Qu. Using the record for O=c1c2cc(Br)ccc2nc(CCl)n1-c1ccc(O)c([N+](=O)[O-])c1 , state its measured TGI.
Ans. 50.3

Qu. For c1c2c(cc(-n3nnc4c3CCCCCC4)c1-n1nnc3c1CCCCCC3)CCCCCC2 , write its TGI.
Ans. 39.4

Qu. Answer with reported TGI of O=[N+]([O-])c1ccc(-c2ccc(-c3csc(Nc4ccccc4)n3)o2)cc1
Ans. 38.4

Qu. Give the reported TGI for this compound. CSC(=S)N/N=C/c1nccc2ccccc12
Ans. 63.6

---

Would you mind telling me the reported TGI of each entry?
test system: A498 renal; experiment: NCI tumour cell line growth inhibition, 48 h

Qu. Specify measured TGI for C[n+]1c(-c2ccc(/C=C/C=N\NC(=O)c3ccc(C(=O)N/N=C\C=C\c4ccc(-c5cn6ccccc6[n+]5C)cc4)cc3)cc2)cn2ccccc21 .
Ans. > 100 µM

Qu. Give TGI for COC1CC(OC2CCC3(C)C(=CCC4C3C(OC(C)=O)C(OC(=O)CC(C)C)C3(C)C(C(C)=O)CCC43O)C2)OC(C)C1OC1CC(OC)C(OC2CC(OC)C(OC3OC(C)C(OC4OC(CO)C(O)C(O)C4O)C(OC)C3O)C(C)O2)C(C)O1 (stereo not drawn)
Ans. > 75 µM

Qu. Output TGI of COc1ccc(CN2C3CC2CN(c2ccc(-c4cc(OCC(C)(C)O)cn5ncc(C#N)c45)cn2)C3)cn1
Ans. 3.7 µM

Qu. Determine its reported TGI: Cn1c2c(c3ccccc31)CCN(CCN1CCN(c3cccc(Cl)c3)CC1)C2=O
Ans. > 100 µM

Qu. Entry CN(C)C(=O)O[C@H]1CN[C@H](C#Cc2cc3ncnc(Nc4ccc(OCc5cccc(F)c5)c(Cl)c4)c3s2)C1 needs its TGI filled in; supply it.
Ans. 23.3 µM

Qu. Let me know recorded TGI for O=C1c2ccccc2NC(=S)[C@@H]2CCCN12 , thanks.
Ans. > 100 µM

Qu. Give the value of TGI reported for the following: CSC(=S)N/N=C/c1nccc2ccccc12
Ans. 13.6 µM

Qu. Read the entry O=C(N/N=C/c1ccccc1O)c1ccccc1 and write its reported TGI.
Ans. > 100 µM
